Tested on: phenyl-p-quinone-induced writhing (abdominal contractions)
assay_text: phenylquinone-induced writhing test (analgesic activity), compound given 30 min before phenyl-p-quinone
Format: in vivo, male Wistar rats
condition_context: 20 mg/Kg per os
Response field label takes YES when % Protection is strictly below 80% and NO in all other cases.

• Cc1ccc(C(=O)c2ccc(CC(=O)N3CCOCC3)n2C)cc1 [Compound 3-a] = YES
• CCOC(=O)c1ccc(NC(=O)Cc2ccc(C(=O)c3ccc(C)cc3)n2C)cc1 [Compound 1-h] = YES
• Cc1ccc(C(=O)c2ccc(CC(=O)NCC(=O)O)n2C)cc1 [Compound 1-c] = NO

# check: % Protection < 80% for Cc1ccc(C(=O)c2ccc(CC(=O)NNCC(=O)N3CCN(C)CC3)n2C)cc1 [Compound 1-o] NO
